# Tested on: HepG2
# procedure.text: GSK_TCMDC: Percent inhibition of human HepG2 cell line. Test compounds present at 10uM.
# Type: functional
measurement.name: Inhibition (%)
Numbers only, in %.

Examples with answers:
> print(dat)
                         compound.structure  measure.unit  assay.result
1  O=C(Nc1cncc(NC(=O)c2ccc(Cl)c(Cl)c2)c1)c1ccc(Cl)c(Cl)c1             %            12
2    CCN(CC)c1ccc(-c2nc3cc(Cl)cnc3[nH]2)cc1             %            16
3  N#Cc1ccc(N[C@@H](CC2CCCCC2)C(=O)NCc2cc(Cl)cc(Cl)c2)c2ccccc12.O=C(O)C(F)(F)F             %            34

Please give Inhibition, item by item, for the list that follows.
1. CCOc1ccc2nc(N(CCCn3ccnc3)C(=O)C=Cc3cccs3)sc2c1.Cl
2. Clc1ccc(CNc2ccnc(NCCc3coc4ccccc34)n2)c(Cl)c1
3. Cc1cn(CC(=O)Nc2cccc(-c3cccc(-c4nc5cc(C(F)(F)F)ccc5[nH]4)c3)c2)c(=O)[nH]c1=O
4. CCc1c[nH]c2c(N3CCCC3=O)cc(C(=O)N[C@@H](Cc3ccccc3)[C@H](O)CNC3CCCCC3)cc12.O=CO
5. COC(=O)c1cccc(NC(=O)NCCNc2ccnc(Nc3ccc(F)cc3)n2)c1
6. CCC(=O)c1cc(C(=O)NCCc2cccc(OC)c2)ccc1OC

Response line:
0
26
15
12
10
0

Prompt line: # lookup: Inhibition of Cc1ccoc1C(=O)Nc1cccc(-c2cccc(-c3nc4cc(C(F)(F)F)ccc4[nH]3)c2)c1
Response line: 39

###

# System: Plasmodium falciparum
# procedure.text: GSK_TCMDC: Inhibition of Plasmodium falciparum 3D7 in whole red blood cells, using parasite LDH activity as an index of growth. Test compounds present at 2uM
# Assay type: functional
Task for the reader: assign each of the following molecules its reported Inhibition.
One number for each entry, in %.

Solved entries:
> print(dat)
                                   molecule  assay.result
1  CC1CN(c2ccnc3ccc(Sc4ccc(Oc5ccccc5)cc4)cc23)CC(C)N1.Cl (stereo not given)           100
2  O=C(Nc1cccc(CN2CCCN(Cc3ccc(O)cc3)CC2)c1)c1ccc2ccccc2n1.O=C(O)C(F)(F)F            90
3  N#Cc1ccc(-c2cnc3ccc(NCCc4cccnc4)nn23)cc1            99
4  COc1cccc(NC(=O)Nc2ccc(C)c(-c3ccc(C(=O)Nc4ccncc4)cc3)c2)c1            99
5  C=CCOC(=O)N1CCC(CNCc2cccc(-c3ccc(-c4nc5cc(C(F)(F)F)ccc5[nH]4)cc3)c2)C1.O=C(O)C(F)(F)F (stereo not given)           100

Can you give me Inhibition for all of these, one by one?
1. COc1ccc2nccc(N3CCCN(CCNCc4ccc5c(n4)NC(=O)CS5)CC3)c2n1.Cl
2. NC1CCN(Cc2ccc(-c3ccc(-c4nc5ccccc5[nH]4)s3)cc2)C1.O=C(O)C(F)(F)F (stereo not given)
3. COc1ccc(N2CCN(CCCC/C=C/c3ccc(NC(=O)c4cc(Cl)cc(Cl)c4)cc3)CC2)c(OC)c1
4. Cc1cc(=O)c(-c2ccc(Oc3ccc(Cl)cc3Cl)cc2)c(C)[nH]1
5. O=C(NCc1ccccc1)OC1CNCCC1c1ccc(C(O)Cc2ccccc2)cc1.O=C(O)C(F)(F)F (stereo not given)
6. COc1ccc(CCn2c(=N)c(C(=O)NCc3cccnc3)cc3c(=O)n4cccc(C)c4nc32)cc1
7. Cl.NC(=O)c1ccccc1Nc1nc(Nc2cccc(N3CCN(CCO)CC3)c2)ncc1Cl
8. CC1CCC(NCc2ccc3c(CNC4CCC(C)CC4)c(O)ccc3c2O)CC1.Cl (stereo not given)

Response line:
1. 100
2. 100
3. 99
4. 93
5. 87
6. 92
7. 95
8. 100

Respectfully, I request Inhibition for each entry included below.
1. Cc1c(F)cc(C(=O)NC2CC2)cc1-c1ccc2c(c1)c(C)nn2S(=O)(=O)c1cccs1
2. O=C(NCCCN1CCCC1=O)NCc1ccccc1
3. COc1ccc(-c2cccc(NC(=O)c3ccc(Cl)cc3)c2)cc1CN1CCCN(C)CC1.O=C(O)C(F)(F)F
4. CC(C)C[C@H](NC(=O)c1ccc(OCCN2CCOCC2)cc1)C(=O)N[C@H](/C=N/N1CCNC1=O)CCc1ccccc1
5. Cc1ccc(NC(=O)c2cccc(CN3CCCN(Cc4cccc(O)c4)CC3)c2)cc1C.O=C(O)C(F)(F)F
6. COc1cc(Cc2cnc(N)nc2N)ccc1OCc1ccc(F)c(F)c1

Response line:
1: 91; 2: 99; 3: 100; 4: 89; 5: 95; 6: 90

I would be grateful if you could provide Inhibition for each of the following entries.
1. CC(C)C1=C[C@H]2C[C@]3(C4OCCO4)[C@@H]4CC[C@@H](C)[C@H]4C[C@@]2(COCc2cccc(C#N)c2)[C@]13C(=O)OC(c1ccccc1)c1ccccc1
2. Cc1ccc(-c2ccc3c(c2)C=C(C(=O)NC2CCN(CCNC(=O)c4cccs4)CC2)CCC3)cc1.O=C(O)C(F)(F)F

Response line:
[88, 90]

For every item in the list below, what is its measured Inhibition?
1. C=Cc1cc(NC(=O)N2CCc3cc(OC)c(C(F)(F)F)cc32)cc(-c2cccnc2)c1
2. CCN(CCCN1CCCCC1)c1cc(C)nc(Nc2ccc(Br)cc2F)n1.O=C(O)C(F)(F)F
3. Cc1cccn2c(=O)c3cc(C(=O)NC(C)c4ccccc4)c(=N)n(CCc4ccccc4)c3nc12 (stereo not given)
4. Fc1ccc2[nH]c(-c3ccc(-c4ccc(CN5CCCCC5)cc4)s3)nc2c1.O=C(O)C(F)(F)F
5. COc1cc2nc(Nc3ccc(C)cc3)nc(Nc3ccc(C)cc3)c2cc1OC.Cl
6. Cc1ccc2[nH]c(C)cc(=NN=Cc3cccc(F)c3)c2c1
7. Cc1cc(N[C@@H](Cc2ccccc2)C(=O)NC2CCCC2)nc(NCc2ccccc2C)n1.O=C(O)C(F)(F)F
8. CN(C)CCNC(=O)c1ccc2c(c1)n(C1CCN(S(=O)(=O)c3ccc(-c4ccccc4)cc3)CC1)c(=O)n2CC1CCCCC1

Response line:
[92, 95, 100, 92, 100, 99, 91, 100]

Prompt line: Need Inhibition of O=C(Nc1ccc(Cl)c(C(F)(F)F)c1)c1ccc(C(=O)Nc2ccc(Cl)c(C(F)(F)F)c2)cc1 , thanks.
Response line: 88

###

# Tested on: Plasmodium falciparum
# procedure.text: GSK_TCMDC: Inhibition of Plasmodium falciparum 3D7 in whole red blood cells, using parasite LDH activity as an index of growth. Test compounds present at 2uM
# Format: functional
Please go through the items and note down their Inhibition.
One number for each entry, in %.

Worked cases, answers included:
> print(dat)
                                   compound  measurement.name  assay.result
1            Cc1ccc(Nc2nc(-c3ccccn3)cs2)nc1        Inhibition            94
2  CCCCCCN1CCC(NCc2cccc3ccccc23)CC1.O=C(O)C(F)(F)F        Inhibition            95
3  CN1CCN(c2cccc(NC(=O)c3ccc(-c4ccc(C#N)cc4)cc3)c2)CC1        Inhibition            84
4  Cc1cc(C(=O)CN2C(=O)NC3(CCOc4ccccc43)C2=O)c(C)n1Cc1ccco1 (stereo not given)        Inhibition            93
5  CC(C)CCN1CCC(Oc2ccc(NC(=O)c3cccs3)cc2Cl)C1.O=C(O)C(F)(F)F (stereo not given)        Inhibition            94

Dear reader, for each entry below, please note its Inhibition.
1. CCCN1CCN(CCCCNc2c3ccccc3nc3ccccc23)CC1.Cl
2. COc1cccc2c(NN=Cc3cccc(Cl)c3)ccnc12
3. COc1cccc(OC)c1OCCCOc1c(C)nc(N)nc1N.Cl
4. OC(COc1ccccc1-c1nc2ccccc2o1)CN1CCCN(CCc2ccccc2)CC1 (stereo not given)
5. O=C(Nc1cncc(NC(=O)c2ccc(Cl)c(Cl)c2)c1)c1ccc(Cl)c(Cl)c1

Response line:
100
100
97
97
100

###

For each of the compounds below, state its Inhibition.
# Test system: Plasmodium falciparum
# procedure.text: GSK_TCMDC: Inhibition of Plasmodium falciparum 3D7 in whole red blood cells, using parasite LDH activity as an index of growth. Test compounds present at 2uM
# Format: functional
Answers are plain numbers, in %.

Consider the following illustrative entries.
> print(dat)
                          compound.structure  measurement.name  measure.unit  assay.result
 1  COc1ccc2nccc([C@@H](O)CN3CCC(NCCOc4ccc(F)cc4Cl)CC3)c2c1.O=C(O)C(=O)O        Inhibition             %            99
 2     CC(=O)c1c(Nc2c(C)cc(C)cc2C)oc(C)cc1=O        Inhibition             %            95
 3  COCCNCc1ccc(-c2ccc(CNc3ccc4ncccc4c3)cc2)cc1.O=C(O)C(F)(F)F        Inhibition             %            85
 4  Cl.O=C(Nc1cccc(Cl)c1Cl)N1CCc2cc3nccc(N4CCN5CCC[C@H]5C4)c3cc21        Inhibition             %            98
 5  c1ccc(CN2CCC(NCc3cccc(-c4cncc5ccccc45)c3)CC2)cc1        Inhibition             %            92
 6  NCc1ccc(-c2cccc(CNC3CCN(Cc4ccccc4)CC3)c2)cc1.O=C(O)C(F)(F)F        Inhibition             %           100
 7  CCOCCCNc1nc2cc(OC)c(OC)cc2c2nc(-c3ccccc3)nn12        Inhibition             %            96
 8  Cc1ccc(C(=O)Nc2ccc(F)c(F)c2F)cc1S(=O)(=O)N1CCCCC1        Inhibition             %            92
 9  CC(C)(C)C(C)(C)Cc1ccc(O)c(CN2CCN(c3ccccc3)CC2)c1        Inhibition             %            99
10  NC1CCN(c2nc(NCCc3ccc(O)cc3)nc(NCc3ccccc3-c3ccc(C(F)(F)F)cc3)n2)CC1.O=C(O)C(F)(F)F        Inhibition             %           100

Record Inhibition for all entries; do not skip any.
1. O=C(NC1CCN(Cc2ccccc2)CC1)c1ccc(-c2nc3cc(Cl)c(F)cc3[nH]2)s1
2. Cl.Clc1ccc2c(N3CCN(CCN4CCN(c5ccnc6cc(Cl)ccc56)CC4)CC3)ccnc2c1
3. COc1cc(F)c2ncc(Cl)c(CCN3CCC(NCc4cc5c(cn4)OCCO5)CC3)c2c1.Cl

Response line:
100
99
89

Values were extracted from ChEMBL document CHEMBL1157539.
